Each recorded value in this set is attributed to PubChem BioAssay (NCI).

# Test system: DU-145 prostate
# Assay Info: NCI tumour cell line growth inhibition, 48 h
Kindly state TGI for each of the entries shown.
Report only the number, with the unit µM understood.

Prompt: TGI lookup needed for Cc1ccc(S(=O)(=O)N(CC(O)COc2ccccc2)c2c(F)c(F)c(F)c(F)c2F)cc1 (stereo not given) , thanks.
Completion: 72.9

Prompt: TGI lookup needed for COc1cc2ncnc(Nc3cccc(Br)c3)c2cc1OC , thanks.
Completion: 34.2

Prompt: TGI lookup needed for c1ccc(C/C(=N\Nc2nc3ccccc3[nH]2)c2ccccn2)cc1 , thanks.
Completion: 27.7

Prompt: TGI lookup needed for CCCCCCCCCCCC(c1ccccc1)[N+](C)(C)C (stereo not given) , thanks.
Completion: 7.51

Prompt: TGI lookup needed for C=C1C(=O)O[C@@H]2C[C@@]3(C)CCC[C@H](C)C3=C[C@H]12 (tested in a mixture with another compound) , thanks.
Completion: 8.67

----------
# System: PC-3 prostate
# Assay Info: NCI tumour cell line growth inhibition, 48 h
Test Readout: GI50

Prompt: GI50 lookup needed for C=CCn1c(SCC(=O)Nc2ccc(C(=O)/C=C/c3cc(OC)c(OC)c(OC)c3)cc2)nnc1-c1cc(OC)c(OC)c(OC)c1 , thanks.
Completion: 4.29 µM

Prompt: GI50 lookup needed for [Cu].c1ccc2c(c1)C1=NC2=NC2=NC(=NC3=NC(=NC4=NC(=N1)c1ccccc14)c1ccccc13)c1ccccc12 , thanks.
Completion: > 100 µM

Prompt: GI50 lookup needed for O=C(Nc1ccccc1/C=C/c1n[nH]c2ccccc12)c1ccccc1 , thanks.
Completion: 2.15 µM

Prompt: GI50 lookup needed for C=C(C)[C@@H]1CC[C@]2(C(=O)OC)CC[C@]3(C)[C@H](CC[C@@H]4[C@@](C)(CCc5nn[nH]n5)[C@H](C(=C)C)CC[C@]43C)[C@@H]12 , thanks.
Completion: 3.46 µM

----------
# Tested on: HOP-18 NSCLC
# Assay Info: NCI tumour cell line growth inhibition, 48 h
Non-standard residues stand in square brackets, D forms with d. Residues, ends and D or L forms follow the SMILES beside them. ξ: configuration not given here. Pen = CC(C)(S)[C@H](N)C(=O)O; ξL = CC(C)CC(N)C(=O)O
Test Readout: TGI

Prompt: Given the entry CC(C)NC1CCCCC2c3ccccc3C12O (centres undefined) , what TGI was observed with HOP-18 NSCLC?
Completion: > 100 µM

Prompt: Given the entry O=C(O)c1ccccc1NS(=O)(=O)c1ccc(Cl)cc1 , what TGI was observed with HOP-18 NSCLC?
Completion: > 100 µM

Prompt: Given the entry Cc1c2ccccc2c(=O)n2c(-c3ccccn3)cccc12 , what TGI was observed with HOP-18 NSCLC?
Completion: > 100 µM

Prompt: Given the entry CSCC[C@H](NC(=O)C(CC(C)C)NC(=O)[C@H](Cc1c[nH]cn1)NC(=O)CNC(=O)[C@@H](NC(=O)[C@@H](C)NC(=O)[C@H](Cc1c[nH]c2ccccc12)NC(=O)[C@H](CCC(N)=O)NC(=O)[C@@H](N)CC(N)=O)C(C)(C)SC)C(N)=O (some centres undefined) (H-NQW[dA][Pen](Me)GH[ξL]M-NH2) , what TGI was observed with HOP-18 NSCLC?
Completion: > 100 µM

Prompt: Given the entry COc1ccc2c(c1[N+](=O)[O-])CC[C@@H]1[C@@H]2CC[C@]2(C)C(=O)CC[C@@H]12 , what TGI was observed with HOP-18 NSCLC?
Completion: > 25 µM

Prompt: Given the entry CCOc1cc2c(cc1OC)c[n+](C)c1c3cc(OC)c(OC)cc3ccc21 , what TGI was observed with HOP-18 NSCLC?
Completion: > 80.1 µM

Prompt: Given the entry O=[N+]([O-])c1ccc(Cl)c(C2CC(c3cccc4ccccc34)=Nc3ccccc3S2=O)c1 (centres undefined) , what TGI was observed with HOP-18 NSCLC?
Completion: > 100 µM

Prompt: Given the entry Cc1cccc(-c2nc(=S)[nH][nH]2)c1 , what TGI was observed with HOP-18 NSCLC?
Completion: > 100 µM

Prompt: Given the entry CCOP(=O)(OCC)C(C(=O)OC)C(=O)C(=O)Nc1cccc([N+](=O)[O-])c1 (centres undefined) , what TGI was observed with HOP-18 NSCLC?
Completion: > 100 µM
